A collection of binders and their measured ELISA ratio
STUDY SYSTEM: T1, purified recombinant DR5-Fc protein (UniProt O14763-2 56-182, limits assumed)
T1 construct: also called TRAIL-R2; not shown: Fc portion
T1 sequence (O14763 56-182 limits assumed): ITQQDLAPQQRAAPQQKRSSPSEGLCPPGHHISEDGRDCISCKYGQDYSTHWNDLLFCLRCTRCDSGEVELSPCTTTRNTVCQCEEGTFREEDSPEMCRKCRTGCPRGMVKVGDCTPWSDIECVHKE
PROCEDURE DETAILS: phage ELISA; signal on target-Fc over non-specific control (e.g. IgG1-Fc); average where several clones
Please respond with just the number, no unit label.

Example entries and their recorded answers appear below.
1) DBDpp of SEQ ID NO: 29, phage-displayed (designed binder, F1 library; rescued M13 phage clone, DBDpp fused to pIII) MGSWFYFKQHLAWIKSYLEALGGSEAELAHFERAIAAFEQHLQMYKGKGNPEVEALRKEAAAIRDELQAYRHN	11.8
2) DBDpp of SEQ ID NO: 32, phage-displayed (designed binder, F1 library; rescued M13 phage clone, DBDpp fused to pIII) MGSWIYFKEHLAYIKKELEALGGSEAELAHFESAIAVFESTLQYYKGKGNPEVEALRKEAAAIRDELQAYRHN	10.7
3) DBDpp of SEQ ID NO: 33, phage-displayed (designed binder, F1 library; rescued M13 phage clone, DBDpp fused to pIII) MGSWTYFKEHLAEIKYMLEALGGSEAELAHFEVAIADFEKMLQYYKGKGNPEVEALRKEAAAIRDELQAYRHN	10.3
4) DBDpp of SEQ ID NO: 30, phage-displayed (designed binder, F1 library; rescued M13 phage clone, DBDpp fused to pIII) MGSWHYFKDHLAEIKGLLEALGGSEAELAHFEMAIADFEHNLQYYKGKGNPEVEALRKEAAAIRDELQAYRHN	11.4
5) DBDpp of SEQ ID NO: 31, phage-displayed (designed binder, F1 library; rescued M13 phage clone, DBDpp fused to pIII) MGSWHYFKGHLAEIKNHLEALGGSEAELAHFERAIAAFERSLQWYKGKGNPEVEALRKEAAAIRDELQAYRHN	10.8
6) DBDpp of SEQ ID NO: 28, phage-displayed (designed binder, F1 library) MGSWVYFKEHLAWIKTELEALGGSEAELAHFEHSIADFEMSLQFYKGKGNPEVEALRKEAAAIRDELQAYRHN	12.1

Note: attention shifts to another entry.
Task item: # lookup: ELISA ratio of DBDpp of SEQ ID NO: 34, phage-displayed (designed binder, F1 library; rescued M13 phage clone, DBDpp fused to pIII) MGSWWLFKDHLAEIKTALEALGGSEAELAHFEMAIAAFEKQLQYYKGKGNPEVEALRKEAAAIRDELQAYRHN
Reply: 9.75

Origin of the recorded values: patent US20180209983A1
